Would you mind telling me the reported viability at 18 h, 0.001 µM of each entry?
# test_description: Cytotoxicity against mouse P19 derived neurons assessed as cell viability at 1 nM after 18 hrs by XTT assay relative to control
# Assay type: toxicity
# recorded_conditions: read-out: Activity
One number for each entry, in %.

Below are worked cases with known answers.
OC[C@@H]1Cc2c([nH]c3ccccc23)CN1Cc1cn(C[C@@H]2Cc3c([nH]c4ccccc34)CN2)nn1: 131
N[C@@H](Cc1c[nH]c2ccccc12)Cn1cc(-c2ccc(Cl)c(Cl)c2)nn1: 139
N[C@@H](Cc1c[nH]c2ccccc12)Cn1cc(CNC(=O)/C=C/c2ccc(O)c(O)c2)nn1: 133

Now examine the next entry.
Consider the compound shown here: O=C(/C=C/c1ccc(O)c(O)c1)NCc1cn(C[C@@H]2Cc3c([nH]c4ccccc34)CN2)nn1 What is its recorded viability at 18 h, 0.001 µM?
130

Cited source for all entries: ChEMBL document CHEMBL3875215
